Where a name gives a salt, the structure may show the parent alone.
TEST_READOUT: melting point

CNCc1cc(-c2ccncc2)ccc1Oc1ccc(Cl)c(Cl)c1 (as salt: HCl) (hydrate or solvate) ... 179 to 181 °C

Entry under test: CNCc1cc(-c2ccsc2)ccc1Oc1ccc(Cl)c(Cl)c1 (as salt: HCl) . Its melting point was 169 to 172 °C

Entry under test: CNCc1cc(-c2cccs2)ccc1Oc1ccc(Cl)c(Cl)c1 (as salt: HCl) . Its melting point was 207 to 209 °C

Entry under test: CNCc1cc(-c2ccc(C)cc2)ccc1Oc1ccc(Cl)c(Cl)c1 (as salt: HCl) (hydrate or solvate) . Its melting point was 208 to 210 °C

Entry under test: `CNCc1cc(-n2ccc(N)n2)ccc1Oc1ccc(Cl)c(Cl)c1.Cl.Cl` . Its melting point was 225 to 233 °C

Entry under test: CNCc1cc(N2CCCC2=O)ccc1Oc1ccc(Cl)c(Cl)c1 (as salt: HCl) . Its melting point was 166 to 170 °C

Entry under test: CNCc1ccc(-c2ccsc2)cc1Oc1ccc(Cl)c(Cl)c1 (as salt: HCl) (hydrate or solvate) . Its melting point was 181 to 184 °C

Entry under test: CNCc1ccc(-c2cccs2)cc1Oc1ccc(Cl)c(Cl)c1 (as salt: HCl) . Its melting point was 180 to 183 °C

Entry under test: CNCc1cc(-c2cccnc2)ccc1Oc1ccc(Cl)c(Cl)c1 (as salt: HCl) . Its melting point was 168 to 171 °C

###

Structures can show the parent of a compound that is named as a salt.
TEST_READOUT: melting point

CNCc1ccc(-c2ccccc2)cc1Oc1ccc(Cl)c(Cl)c1 (as salt: HCl) ... 186 to 194 °C
CNCc1cc(-c2ccco2)ccc1Oc1ccc(Cl)c(Cl)c1 (as salt: HCl) (hydrate or solvate) ... 188 to 191 °C
CNC(C)c1cc(N2CCCC2=O)ccc1Oc1ccc(Cl)c(Cl)c1.Cl (stereo not shown) ... 195 to 200 °C

Next molecule, please.
Entry under test: CNCc1ccc(-c2ccco2)cc1Oc1ccc(Cl)c(Cl)c1 (hydrate or solvate) . Its melting point was 129 to 134 °C
